These entries and their values trace back to the supplement of paper PMC5998384.

Exercise: for every item that follows, state its recorded melting temperature.
- Tested on: HeLa Kyoto
- EXPERIMENTAL PROTOCOL: melting temperature (median over replicates), in situ; higher = more thermally stable
- CONDITION INFO: cell cycle stage: mitosis
Note: unit °C is implicit; provide only the numeric part.

Data request: melting temperature lookup needed for MGPVRLGILLFLFLAVHEAWAGMLKEEDDDTERLPSKCEVCKLLSTELQAELSRTGRSREVLELGQVLDTGKRKRHVPYSVSETRLEEALENLCERILDYSVHAERKGSLRYAKGQSQTMATLKGLVQKGVKVDLGIPLELWDEPSVEVTYLKKQCETMLEEFEDIVGDWYFHHQEQPLQNFLCEGHVLPAAETACLQETWTGKEITDGEEKTEGEEEQEEEEEEEEEEGGDKMTKTGSHPKLDREDL [CNPY4] , thanks.
Data returned: 54.3

Data request: Quick one: MAPWGKRLAGVRGVLLDISGVLYDSGAGGGTAIAGSVEAVARLKRSRLKVRFCTNESQKSRAELVGQLQRLGFDISEQEVTAPAPAACQILKEQGLRPYLLIHDGVRSEFDQIDTSNPNCVVIADAGESFSYQNMNNAFQVLMELEKPVLISLGKGRYYKETSGLMLDVGPYMKALEYACGIKAEVVGKPSPEFFKSALQAIGVEAHQAVMIGDDIVGDVGGAQRCGMRALQVRTGKFRPSDEHHPEVKADGYVDNLAEAVDLLLQHADK [LHPP]
Data returned: 55.5

Data request: MRSGGRGRPRLRLGERGLMEPLLPPKRRLLPRVRLLPLLLALAVGSAFYTIWSGWHRRTEELPLGRELRVPLIGSLPEARLRRVVGQLDPQRLWSTYLRPLLVVRTPGSPGNLQVRKFLEATLRSLTAGWHVELDPFTASTPLGPVDFGNVVATLDPRAARHLTLACHYDSKLFPPGSTPFVGATDSAVPCALLLELAQALDLELSRAKKQAAPVTLQLLFLDGEEALKEWGPKDSLYGSRHLAQLMESIPHSPGPTRIQAIELFMLLDLLGAPNPTFYSHFPRTVRWFHRLRSIEKRLHRLNLLQSHPQEVMYFQPGEPFGSVEDDHIPFLRRGVPVLHLISTPFPAVWHTPADTEVNLHPPTVHNLCRILAVFLAEYLGL [QPCTL] , same question.
Data returned: 52.7

Data request: Would you mind doing MLGGSLGSRLLRGVGGSHGRFGARGVREGGAAMAAGESMAQRMVWVDLEMTGLDIEKDQIIEMACLITDSDLNILAEGPNLIIKQPDELLDSMSDWCKEHHGKSGLTKAVKESTITLQQAEYEFLSFVRQQTPPGLCPLAGNSVHEDKKFLDKYMPQFMKHLHYRIIDVSTVKELCRRWYPEEYEFAPKKAASHRALDDISESIKELQFYRNNIFKKKIDEKKRKIIENGENEKTVS [REXO2] as well?
Data returned: 56.5

Data request: Try this sequence next: MSNKEGSGGFRKRKHDNFPHNQRREGKDVNSSSPVMLAFKSFQQELDARHDKYERLVKLSRDITVESKRTIFLLHRITSAPDMEDILTESEIKLDGVRQKIFQVAQELSGEDMHQFHRAITTGLQEYVEAVSFQHFIKTRSLISMDEINKQLIFTTEDNGKENKTPSSDAQDKQFGTWRLRVTPVDYLLGVADLTGELMRMCINSVGNGDIDTPFEVSQFLRQVYDGFSFIGNTGPYEVSKKLYTLKQSLAKVENACYALKVRGSEIPKHMLADVFSVKTEMIDQEEGIS [TSNAX]
Data returned: 56.3

----------
- Tested on: HeLa Kyoto
- EXPERIMENTAL PROTOCOL: thermal stability score vs G1/S (z-score of summed log2 fold changes over temperatures); higher = more thermally stable than in G1/S
- CONDITION INFO: cell cycle stage: early G1 (4.5 h after nocodazole release)
ASSAY READOUT: thermal stability score
Lab note: record just the number, no unit beside it.

Data request: # returns recorded thermal stability score (system: HeLa Kyoto) for MNAEPERKFGVVVVGVGRAGSVRMRDLRNPHPSSAFLNLIGFVSRRELGSIDGVQQISLEDALSSQEVEVAYICSESSSHEDYIRQFLNAGKHVLVEYPMTLSLAAAQELWELAEQKGKVLHEEHVELLMEEFAFLKKEVVGKDLLKGSLLFTAGPLEEERFGFPAFSGISRLTWLVSLFGELSLVSATLEERKEDQYMKMTVCLETEKKSPLSWIEEKGPGLKRNRYLSFHFKSGSLENVPNVGVNKNIFLKDQNIFVQKLLGQFSEKELAAEKKRILHCLGLAEEIQKYCCSRK [BLVRA]
Data returned: -0.499

Data request: And then MSCAGAAAAPRLWRLRPGARRSLSAYGRRTSVRFRSSGMTLDNISRAAVDRIIRVDHAGEYGANRIYAGQMAVLGRTSVGPVIQKMWDQEKDHLKKFNELMVTFRVRPTVLMPLWNVLGFALGAGTALLGKEGAMACTVAVEESIAHHYNNQIRTLMEEDPEKYEELLQLIKKFRDEELEHHDIGLDHDAELAPAYAVLKSIIQAGCRVAIYLSERL [COQ7] , what is it?
Data returned: -2.12

Data request: Param item: MGSSKKVTLSVLSREQSEGVGARVRRSIGRPELKNLDPFLLFDEFKGGRPGGFPDHPHRGFETVSYLLEGGSMAHEDFCGHTGKMNPGDLQWMTAGRGILHAEMPCSEEPAHGLQLWVNLRSSEKMVEPQYQELKSEEIPKPSKDGVTVAVISGEALGIKSKVYTRTPTLYLDFKLDPGAKHSQPIPKGWTSFIYTISGDVYIGPDDAQQKIEPHHTAVLGEGDSVQVENKDPKRSHFVLIAGEPLREPVIQHGPFVMNTNEEISQAILDFRNAKNGFERAKTWKSKIGN [PIR]
Data returned: -1.49

Data request: Moving on to the next sequence: MATRRLTDAFLLLRNNSIQNRQLLAEQVSSHITSSPLHSRSIAAELDELADDRMALVSGISLDPEAAIGVTKRPPPKWVDGVDEIQYDVGRIKQKMKELASLHDKHLNRPTLDDSSEEEHAIEITTQEITQLFHRCQRAVQALPSRARACSEQEGRLLGNVVASLAQALQELSTSFRHAQSGYLKRMKNREERSQHFFDTSVPLMDDGDDNTLYHRGFTEDQLVLVEQNTLMVEEREREIRQIVQSISDLNEIFRDLGAMIVEQGTVLDRIDYNVEQSCIKTEDGLKQLHKAEQYQKKNRKMLVILILFVIIIVLIVVLVGVKSR [STX16]
Data returned: -1.14

Data request: Repeat with MAAETRNVAGAEAPPPQKRYYRQRAHSNPMADHTLRYPVKPEEMDWSELYPEFFAPLTQNQSHDDPKDKKEKRAQAQVEFADIGCGYGGLLVELSPLFPDTLILGLEIRVKVSDYVQDRIRALRAAPAGGFQNIACLRSNAMKHLPNFFYKGQLTKMFFLFPDPHFKRTKHKWRIISPTLLAEYAYVLRVGGLVYTITDVLELHDWMCTHFEEHPLFERVPLEDLSEDPVVGHLGTSTEEGKKVLRNGGKNFPAIFRRIQDPVLQAVTSQTSLPGH [METTL1]
Data returned: 0.937

----------
- Tested on: HeLa Kyoto
- EXPERIMENTAL PROTOCOL: thermal stability score vs G1/S (z-score of summed log2 fold changes over temperatures); higher = more thermally stable than in G1/S
- CONDITION INFO: cell cycle stage: early G1 (4.5 h after nocodazole release)
The threshold is inclusive: thermal stability score of exactly -0.4 counts as fulfilled; values below receive not fulfilled.

Data request: Given MIEQQKRKGPELPLVPVKRQRHELLLGAGSGPGAGQQQATPGALLQAGPPRCSSLQAPIMLLSGHEGEVYCCKFHPNGSTLASAGFDRLILLWNVYGDCDNYATLKGHSGAVMELHYNTDGSMLFSASTDKTVAVWDSETGERVKRLKGHTSFVNSCYPARRGPQLVCTGSDDGTVKLWDIRKKAAIQTFQNTYQVLAVTFNDTSDQIISGGIDNDIKVWDLRQNKLTYTMRGHADSVTGLSLSSEGSYLLSNAMDNTVRVWDVRPFAPKERCVKIFQGNVHNFEKNLLRCSWSPDGSKIAAGSADRFVYVWDTTSRRILYKLPGHAGSINEVAFHPDEPIIISASSDKRLYMGEIQ [SNRNP40] , state whether its thermal stability score is at least -0.4.
Data returned: not fulfilled

Data request: // next record MNPESSIFIEDYLKYFQDQVSRENLLQLLTDDEAWNGFVAAAELPRDEADELRKALNKLASHMVMKDKNRHDKDQQHRQWFLKEFPRLKRELEDHIRKLRALAEEVEQVHRGTTIANVVSNSVGTTSGILTLLGLGLAPFTEGISFVLLDTGMGLGAAAAVAGITCSVVELVNKLRARAQARNLDQSGTNVAKVMKEFVGGNTPNVLTLVDNWYQVTQGIGRNIRAIRRARANPQLGAYAPPPHVIGRISAEGGEQVERVVEGPAQAMSRGTMIVGAATGGILLLLDVVSLAYESKHLLEGAKSESAEELKKRAQELEGKLNFLTKIHEMLQPGQDQ [APOL2]
Data returned: fulfilled

Data request: Try MAAEDELQLPRLPELFETGRQLLDEVEVATEPAGSRIVQEKVFKGLDLLEKAAEMLSQLDLFSRNEDLEEIASTDLKYLLVPAFQGALTMKQVNPSKRLDHLQRAREHFINYLTQCHCYHVAEFELPKTMNNSAENHTANSSMAYPSLVAMASQRQAKIQRYKQKKELEHRLSAMKSAVESGQADDERVREYYLLHLQRWIDISLEEIESIDQEIKILRERDSSREASTSNSSRQERPPVKPFILTRNMAQAKVFGAGYPSLPTMTVSDWYEQHRKYGALPDQGIAKAAPEEFRKAAQQQEEQEEKEEEDDEQTLHRAREWDDWKDTHPRGYGNRQNMG [IGBP1] next.
Data returned: not fulfilled

Data request: # iterate: MGSRDHLFKVLVVGDAAVGKTSLVQRYSQDSFSKHYKSTVGVDFALKVLQWSDYEIVRLQLWDIAGQERFTSMTRLYYRDASACVIMFDVTNATTFSNSQRWKQDLDSKLTLPNGEPVPCLLLANKCDLSPWAVSRDQIDRFSKENGFTGWTETSVKENKNINEAMRVLIEKMMRNSTEDIMSLSTQGDYINLQTKSSSWSCC [RAB29]
Data returned: fulfilled

Data request: // next record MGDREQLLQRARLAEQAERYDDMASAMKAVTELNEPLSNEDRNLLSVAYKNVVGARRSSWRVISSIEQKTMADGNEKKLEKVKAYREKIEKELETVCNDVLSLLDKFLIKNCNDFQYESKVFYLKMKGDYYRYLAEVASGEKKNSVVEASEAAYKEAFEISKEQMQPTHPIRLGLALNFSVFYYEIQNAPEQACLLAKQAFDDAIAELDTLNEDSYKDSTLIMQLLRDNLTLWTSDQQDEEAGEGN [YWHAH]
Data returned: not fulfilled
